- Tested on: Huh7 cells
- EXPERIMENTAL PROTOCOL: MTT assay, Huh7 cells
- MEASUREMENT SETUP: Huh7, compounds 24 h
Structures can show the parent of a compound that is named as a salt.

{"columns": ["COMPOUND", "TC50 DENV-2 (24 h)"],
 "data": [
  ["O=C(c1ccc(OCCN2CCCCC2)cc1)c1c(-c2ccc(O)cc2)sc2cc(O)ccc12 [Raloxifene, Raloxifene hydrochloride]", "~22.63 µM"],
  ["CCCCc1oc2ccccc2c1C(=O)c1cc(I)c(OCCN(CC)CC)c(I)c1 [Amiodarone, Amiodarone hydrochloride]", "~25.5 µM"],
  ["CC(C)COCC(CN(Cc1ccccc1)c1ccccc1)N1CCCC1 (stereo not drawn) [Bepridil, Bepridil hydrochloride]", "~23.4 µM"]
]}

###

The following compounds are listed with their measured TC50 SFV (7 h) values.
- Tested on: HeLa Kyoto cells
- MEASUREMENT SETUP: human
Counter-ions that a name gives are not always drawn.
MEASURE NAME: TC50 SFV (7 h)

{"columns": ["COMPOUND", "OBS VALUE"],
 "data": [
  ["O=C(c1ccc(OCCN2CCCCC2)cc1)c1c(-c2ccc(O)cc2)sc2cc(O)ccc12 [Raloxifene, Raloxifene hydrochloride]", ">50 µM"],
  ["CCN(CC)Cc1cc(Nc2ccnc3cc(Cl)ccc23)ccc1O [Amodiaquine, Amodiaquine dihydrochloride dihydrate]", ">50 µM"],
  ["O=C(Nc1ccc([N+](=O)[O-])cc1Cl)c1cc(Cl)ccc1O [Niclosamide]", ">50 µM"]
]}

###

- EXPERIMENTAL PROTOCOL: in vitro
- MEASUREMENT SETUP: human
Counter-ions that a name gives are not always drawn.
The following compounds are listed with their measured viability at 10 µM values.
MEASURE NAME: viability at 10 µM

{"columns": ["COMPOUND", "OBS VALUE"],
 "data": [
  ["Nc1ncnc2c1ncn2[C@@H]1O[C@H](COP(=O)(O)O)[C@@H](O)[C@H]1O [Adenosine 5'-monophosphate monohydrate]", "105%"],
  ["O=C(Nc1ccc([N+](=O)[O-])cc1Cl)c1cc(Cl)ccc1O [Niclosamide]", "36.9%"],
  ["O=C(c1ccc(OCCN2CCCCC2)cc1)c1c(-c2ccc(O)cc2)sc2cc(O)ccc12 [Raloxifene, Raloxifene hydrochloride]", "60.4%"],
  ["CC[C@@]1([C@@H]2O[C@@H]([C@H]3O[C@@](O)(CO)[C@H](C)C[C@@H]3C)C[C@@H]2C)CC[C@H]([C@]2(C)CC[C@]3(C[C@H](O)[C@@H](C)[C@@H]([C@@H](C)[C@@H](OC)[C@H](C)C(=O)O)O3)O2)O1 [Monensin, Monensin sodium salt]", "81%"],
  ["CCOC(=O)C1=C(C)NC(C)=C(C(=O)OCC)C1c1ccccc1/C=C/C(=O)OC(C)(C)C", "75.7%"],
  ["CN1CCN(CCCN2c3ccccc3Sc3ccc(Cl)cc32)CC1 [Prochloperazine, Prochlorperazine dimaleate]", "46.7%"],
  ["OC(c1cc(C(F)(F)F)nc2c(C(F)(F)F)cccc12)C1CCCCN1 (centres unmarked) [Mefloquine hydrochloride]", "7.25%"],
  ["[H]/N=C(\\N/C(=N/[H])NCCCCCCNC(=N)NC(=N)Nc1ccc(Cl)cc1)Nc1ccc(Cl)cc1", "16.6%"]
]}
